Assay Target: PT-biotin binding to fetuin (Bos taurus, UniProt P12763)
Construct: purchased Sigma Chemical Company (fetuin); Connaught Center for Biotechnology Research (PT)
Sequence (P12763 19-359): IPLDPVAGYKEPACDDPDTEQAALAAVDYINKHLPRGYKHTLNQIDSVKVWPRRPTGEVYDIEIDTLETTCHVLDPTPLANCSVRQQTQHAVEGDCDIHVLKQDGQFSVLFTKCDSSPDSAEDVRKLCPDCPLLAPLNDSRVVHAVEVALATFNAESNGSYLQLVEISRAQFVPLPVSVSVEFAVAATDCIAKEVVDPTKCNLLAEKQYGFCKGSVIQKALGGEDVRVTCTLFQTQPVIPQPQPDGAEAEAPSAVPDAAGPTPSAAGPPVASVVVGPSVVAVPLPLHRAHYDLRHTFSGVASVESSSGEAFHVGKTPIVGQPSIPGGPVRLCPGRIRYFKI
Procedure Text: PT-biotin binding to fetuin, binding inhibition assay
Set-up: species or system Bordetella pertussis
Measurement Context: peptide mg/mL: S2PL 1.2, ACS2P1 1.0, S2(14-2.3) 1.0, S2P2 1.1, S2P3 0.51, S2P4 0.98, S2P6 0.85, S3P1 3.2, S3P2 3.1, S3P3 4.5, S3P4 3.3, S3P5 0.48, S3P9a 1.7, SPYGRC 4.4, S2(WGA) 1.0, WGA (62-73) 1.0; + enhancement, − inhibition
Protocol: Peptides ranging in concentration from 0.5 to 4.5 mg/ml in PBS (40 μl) were added to each well and PT-biotin (10 μl containing 10 ng in PBS) was then added to the microtiter wells. […] Horseradish peroxidase-conjugated avidin (100 μl, 1/3000 dilution in PBST to a concentration of 0.3 μg/ml) was then added to the wells, and the plates were incubated at ambient temperature for 1 hour. […] Color development was recorded at 405 nm using a Titertek Multiskan MC plate reader. […]
Give measured Percent Changes in Binding Activity PT/fetuin for each item. Keep answers brief.

INSERT INTO measurements (substance, assay_target, reading) VALUES
  ('CITTIYKTGQPAADHYYSKVTA [Peptide S3P3]', 'PT-biotin binding to fetuin (Bos taurus, UniProt P12763)', '+19 ± 67%'),
  ('VAPGIVIPPKALFTQQGGAYGRC [Peptide S3P2]', 'PT-biotin binding to fetuin (Bos taurus, UniProt P12763)', '+77 ± 59%'),
  ('PKALFTQQGGAYGRC [Peptide S3P1]', 'PT-biotin binding to fetuin (Bos taurus, UniProt P12763)', '+54 ± 25%');

Provide reported Percent Changes in Binding Activity PT/fetuin for each item, in the same order as listed.
1. PQEQITQHGSPYGRC [Peptide S2P1]
2. TQHGSPYGRC [S2 (14-23)]
3. CASPYEGRYRDMYDALRRLLY [Peptide S3P5]

Marked response:
1. +85 ± 4%
2. +68 ± 9%
3. +14 ± 6%

---

Give measured Percent Changes in Binding Activity WGA/fetuin for each item. Keep answers brief.
Assay Target: WGA-biotin binding to fetuin (Bos taurus, UniProt P12763)
Sequence (P12763 19-359): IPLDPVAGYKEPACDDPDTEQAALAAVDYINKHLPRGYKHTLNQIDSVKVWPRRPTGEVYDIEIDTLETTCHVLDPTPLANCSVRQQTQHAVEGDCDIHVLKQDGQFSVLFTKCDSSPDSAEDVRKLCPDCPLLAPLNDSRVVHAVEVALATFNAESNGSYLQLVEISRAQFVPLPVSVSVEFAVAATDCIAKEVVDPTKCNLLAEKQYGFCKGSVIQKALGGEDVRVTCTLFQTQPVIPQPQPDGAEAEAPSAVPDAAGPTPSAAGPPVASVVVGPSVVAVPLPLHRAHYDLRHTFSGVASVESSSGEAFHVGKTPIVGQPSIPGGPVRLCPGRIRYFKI
Procedure Text: biochemical
Measurement Context: peptide mg/mL: S2PL 1.2, ACS2P1 1.0, S2(14-2.3) 1.0, S2P2 1.1, S2P3 0.51, S2P4 0.98, S2P6 0.85, S3P1 3.2, S3P2 3.1, S3P3 4.5, S3P4 3.3, S3P5 0.48, SPYGRC 4.4, S2(WGA) 1.0, WGA (62-73) 1.0; + enhancement, − inhibition

Provide reported Percent Changes in Binding Activity WGA/fetuin for each item, in the same order as listed.
1. VAPGIVIPPKALFTQQGGAYGRC [Peptide S3P2]
2. PQEQITQHGSQYGYC [S2 (WGA)]
3. YDGKYWSMYSRLRKMLY [Peptide S2P4]
4. TQHGSPYGRC [S2 (14-23)]
5. PKALFTQQGGAYGRC [Peptide S3P1]
6. H-SQYGYCGFGAEY-OH [WGA (62-73)]
7. SPYGRC-CO—NH2
8. CASPYEGRYRDMYDALRRLLY [Peptide S3P5]

Marked response:
1: +9 ± 4%; 2: −4 ± 3%; 3: +15 ± 1%; 4: +7 ± 1%; 5: −9 ± 4%; 6: −9 ± 1%; 7: +7 ± 3%; 8: +35 ± 8%

The reported numbers originate from patent US20020054880A1.
